Ref: patent US10583137B2

- SYSTEM TESTED: DAGLβ (hDAGLβ-FLAG) (Homo sapiens (Human), UniProt Q8NCG7)
- Sequence (Q8NCG7 whole entry): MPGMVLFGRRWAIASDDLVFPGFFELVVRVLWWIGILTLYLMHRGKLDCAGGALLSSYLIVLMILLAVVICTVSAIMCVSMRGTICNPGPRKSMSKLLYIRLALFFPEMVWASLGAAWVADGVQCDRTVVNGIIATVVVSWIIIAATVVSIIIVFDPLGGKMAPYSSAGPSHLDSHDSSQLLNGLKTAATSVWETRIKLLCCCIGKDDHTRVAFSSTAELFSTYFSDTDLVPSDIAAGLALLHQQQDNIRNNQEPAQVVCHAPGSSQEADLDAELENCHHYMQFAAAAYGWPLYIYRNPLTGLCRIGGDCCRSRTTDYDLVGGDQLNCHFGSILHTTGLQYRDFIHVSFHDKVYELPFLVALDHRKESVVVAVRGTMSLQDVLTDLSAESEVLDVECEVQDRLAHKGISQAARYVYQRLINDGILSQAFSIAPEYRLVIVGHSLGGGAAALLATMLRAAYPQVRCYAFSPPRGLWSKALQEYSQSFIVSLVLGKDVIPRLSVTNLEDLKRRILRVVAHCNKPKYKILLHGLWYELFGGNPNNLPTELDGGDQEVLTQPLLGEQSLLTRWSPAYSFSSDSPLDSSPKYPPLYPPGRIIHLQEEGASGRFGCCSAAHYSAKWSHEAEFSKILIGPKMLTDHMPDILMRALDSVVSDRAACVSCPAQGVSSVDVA
- EXPERIMENT SUMMARY: competitive ABPP, membrane proteome of transfected HEK293T cells
- Type: biochemical
- CONDITION: read-out: DAGLβ % inh. 0.4 μM
- Description: Compounds 19 and 20 were tested for in vitro inhibition of DAGLα and DAGLβ as measured by competitive activity-based protein profiling (ABPP) of […] using a HT-01 probe (targets DAGLα and DAGLβ) and a FP-Rh probe (targets serine hydrolases). […] The percentage of DAGL activity remaining in the assayed samples was determined by measuring the integrated optical intensity of the fluorescent protein bands of the Western Blot using image lab 4.1. […]
compounds and their reported inhibition at 0.4 µM

Below, each entry is followed by its recorded inhibition at 0.4 µM result.
COMPOUND	inhibition at 0.4 µM
CC(C)OC(=O)N1CCN(C(=O)n2ncc(-c3ccc(OC(F)(F)F)cc3)n2)C(Cc2ccccc2)C1 (stereo not shown) [Compound 97]	0 to 25%
CC(C)(C)OC(=O)N1CCN(C(=O)n2cc(-c3ccc(OC(F)(F)F)cc3)nn2)[C@@H](Cc2ccccc2)C1 [Compound 102]	≥ 75%
CC(C)(C)OC(=O)N1CCN(C(=O)n2ncc(-c3ccc(OC(F)(F)F)cc3)n2)C(Cc2ccccc2)C1 (stereo not shown) [Compound 99]	0 to 25%
CC(C)(C)OC(=O)N1CCN(C(=O)n2cc(-c3ccc(OC(F)(F)F)cc3)nn2)[C@H](Cc2ccccc2)C1 [Compound 100]	≥ 75%
COC(=O)N1CCN(C(=O)n2cc(-c3ccc(OC(F)(F)F)cc3)nn2)C(Cc2ccccc2)C1 (stereo not shown) [Compound 95]	25 to 50%

Lab book: inhibition at 0.4 µM of COC(=O)N1CCN(C(=O)n2ncc(-c3ccc(OC(F)(F)F)cc3)n2)C(Cc2ccccc2)C1 (stereo not shown) [Compound 98] noted as 0 to 25%

For reference, reported inhibition at 0.4 µM for CC(C)OC(=O)N1CCN(C(=O)n2cc(-c3ccc(OC(F)(F)F)cc3)nn2)C(Cc2ccccc2)C1 (stereo not shown) [Compound 96] stands at 50 to 75%

* * *

- SYSTEM TESTED: cannabinoid CB2 (CB2R) receptor (Homo sapiens (Human))
- Sequence (P34972 whole entry): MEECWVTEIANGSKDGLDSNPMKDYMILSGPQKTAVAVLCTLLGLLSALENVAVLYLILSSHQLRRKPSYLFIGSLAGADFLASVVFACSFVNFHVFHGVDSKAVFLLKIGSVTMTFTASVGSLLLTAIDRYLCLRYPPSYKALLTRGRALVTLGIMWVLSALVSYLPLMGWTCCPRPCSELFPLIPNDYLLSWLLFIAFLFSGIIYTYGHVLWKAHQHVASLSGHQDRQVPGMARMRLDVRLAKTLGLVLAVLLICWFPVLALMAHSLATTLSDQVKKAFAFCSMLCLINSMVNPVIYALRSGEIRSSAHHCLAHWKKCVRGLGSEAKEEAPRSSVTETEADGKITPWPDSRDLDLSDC
- EXPERIMENT SUMMARY: radioligand binding assay
QUANTITY KIND: IC50

Entry C#CCO[C@@H]1CC[C@H](Cc2ccccc2)N(C(=O)n2ncc(C(O)(c3ccc(F)cc3)c3ccc(F)cc3)n2)C1 [Compound 14] , IC50 reported as > 1 µM

* * *

- SYSTEM TESTED: DAGLα (hDAGLα-FLAG) (Homo sapiens (Human), UniProt Q9Y4D2)
- Sequence (Q9Y4D2 whole entry): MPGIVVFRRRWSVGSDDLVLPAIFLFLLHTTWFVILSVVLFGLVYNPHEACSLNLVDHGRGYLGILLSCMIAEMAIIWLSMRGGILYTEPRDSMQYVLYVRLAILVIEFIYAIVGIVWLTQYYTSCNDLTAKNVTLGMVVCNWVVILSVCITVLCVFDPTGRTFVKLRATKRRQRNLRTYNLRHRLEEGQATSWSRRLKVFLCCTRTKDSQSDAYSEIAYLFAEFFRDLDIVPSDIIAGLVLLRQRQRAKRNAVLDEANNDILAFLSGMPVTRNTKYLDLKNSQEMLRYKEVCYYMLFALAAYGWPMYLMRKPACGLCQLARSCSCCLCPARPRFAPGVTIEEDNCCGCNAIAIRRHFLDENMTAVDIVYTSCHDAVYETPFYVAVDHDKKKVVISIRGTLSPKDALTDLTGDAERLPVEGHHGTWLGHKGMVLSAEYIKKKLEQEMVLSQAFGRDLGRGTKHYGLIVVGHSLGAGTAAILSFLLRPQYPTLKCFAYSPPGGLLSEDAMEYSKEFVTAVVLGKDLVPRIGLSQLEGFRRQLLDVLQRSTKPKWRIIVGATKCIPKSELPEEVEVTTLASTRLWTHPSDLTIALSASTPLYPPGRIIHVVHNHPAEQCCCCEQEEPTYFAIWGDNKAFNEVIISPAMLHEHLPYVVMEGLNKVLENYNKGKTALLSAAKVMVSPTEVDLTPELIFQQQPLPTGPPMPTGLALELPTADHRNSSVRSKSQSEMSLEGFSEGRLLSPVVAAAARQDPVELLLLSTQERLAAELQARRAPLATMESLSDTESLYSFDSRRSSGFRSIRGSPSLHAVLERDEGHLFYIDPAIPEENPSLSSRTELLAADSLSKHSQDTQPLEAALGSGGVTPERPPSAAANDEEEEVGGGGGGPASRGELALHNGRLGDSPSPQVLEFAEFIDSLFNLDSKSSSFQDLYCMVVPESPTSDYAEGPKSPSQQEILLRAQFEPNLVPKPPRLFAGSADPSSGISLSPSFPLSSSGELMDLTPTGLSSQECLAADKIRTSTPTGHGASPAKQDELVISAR
- EXPERIMENT SUMMARY: competitive ABPP, membrane proteome of transfected HEK293T cells
- Type: biochemical
- CONDITION: 3.2 nM; read-out: DAGLα % inh. 3.2 nM
QUANTITY KIND: inhibition at 0.0032 µM

Note to self: inhibition at 0.0032 µM of `O=C(N1C[C@@H](OCC2CC2)CC[C@@H]1Cc1ccccc1)n1ncc(-c2ccc(OC(F)(F)F)cc2)n1` with DAGLα (hDAGLα-FLAG) (Homo sapiens (Human), UniProt Q9Y4D2) was 25 to 50%

Entry `O=C(N1CCCC[C@H]1Cc1ccccc1)n1ncc(-c2ccc(OC(F)(F)F)cc2)n1` , DAGLα (hDAGLα-FLAG) (Homo sapiens (Human), UniProt Q9Y4D2) data, inhibition at 0.0032 µM value: 0 to 25%

Test item `O=C(N1C[C@@H](O)C=C[C@@H]1Cc1ccccc1)n1cc(-c2ccc(OC(F)(F)F)cc2)nn1` ; DAGLα (hDAGLα-FLAG) (Homo sapiens (Human), UniProt Q9Y4D2); reported inhibition at 0.0032 µM was 0 to 25%
